Target: Dickkopf-related protein 1 (Homo sapiens) (UniProt O94907)
Sequence (O94907 whole entry, looked up): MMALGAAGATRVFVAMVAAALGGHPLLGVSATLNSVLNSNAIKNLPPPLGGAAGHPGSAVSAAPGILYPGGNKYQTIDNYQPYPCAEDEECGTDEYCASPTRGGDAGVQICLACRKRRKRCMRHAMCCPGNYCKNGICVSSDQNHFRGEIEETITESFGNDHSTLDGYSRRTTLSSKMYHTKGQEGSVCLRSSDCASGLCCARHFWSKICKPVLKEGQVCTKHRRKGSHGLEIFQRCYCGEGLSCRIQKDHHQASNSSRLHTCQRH
Test: small molecules binding DKK1 protein – biochemical, small-molecule microarray, 635 nm fluorescence scan, primary screen (AID 1106);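 also: score merges emission near 667 nm with signal to noise over three replicate slides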
Settings: higher = more signal
What composite z-score was measured for each of the following?
One number for each entry.

compound	reported.value
COc1cc2c(cc1O)C=[N+](Cc1sc3ccccc3c1Cl)CC2	0.396
O=C1C2C=CC(C(O)C3CC=CCC3)N(Nc3ccccc3)C2C(=O)N1c1ccccc1 (configuration not stated)	0.333
CCCCC(CC)C(O)C1C=CC2C(=O)N(c3ccccc3)C(=O)C2N1Nc1ccccc1F (configuration not stated)	-0.505
CC(C)C(O)C1C=CC2C(=O)N(c3ccccc3)C(=O)C2N1Nc1ccccc1 (configuration not stated)	-0.0988
C=CCC(OC(C)=O)[C@@H]1[C@@H](N(Cc2ccc(-c3ccccc3)cc2)C(=O)c2ccc(-c3ccccc3)cc2)c2cc(OCCCO)ccc2N1C(=O)c1ccc2ccccc2c1 (some centres not stated)	0.0004
CO[C@H]1O[C@H](CO)[C@@H](OC(=O)Nc2ccccc2)[C@H](OC(=O)c2cc3ccccc3[nH]2)[C@H]1OC(=O)c1cc2ccccc2[nH]1	0.201

// below: composite z-score requested for another compound
Challenge: # get_value(readout='composite z-score', item= COCCOC(=O)N1C(=O)[C@@]2(c3ccccc31)[C@H](C(=O)NC[C@H](O)c1ccccc1)[C@H]1C(=O)O[C@H](c3ccccc3)[C@H](c3ccccc3)N1[C@@H]2c1ccc(O)cc1 )
Response given: 0.827

###

Tested on: Wnt5a (protein binding on small-molecule microarray)
Assay: small molecules binding Wnt5a protein – biophysical, small-molecule microarray, 635/667 nm fluorescence, primary screen (AID 1142);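 also: fluorescence read at 667 nm with signal to noise per printed feature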
Settings: 635 nm fluorescence, higher = more signal
parameter.measured: composite z-score
Answers are plain numbers.

Take a look at these entries with their results.
compound	composite z-score
COCCOC(=O)N1C(=O)[C@@]2(c3cc(C#CC4=CCCCC4)ccc31)[C@H](c1ccccc1OCCO)N1[C@H](c3ccccc3)[C@H](c3ccccc3)OC(=O)[C@H]1[C@@H]2C(=O)NC[C@H](O)c1ccccc1	0.6
COCCOC(=O)N1C(=O)[C@@]2(c3cc(C#CCCO)ccc31)[C@H](c1ccc(OCCO)cc1)N1[C@H](c3ccccc3)[C@H](c3ccccc3)OC(=O)[C@H]1[C@@H]2C(=O)Nc1nc2ccccc2s1	0.508
C=CC[C@]1(C(=O)N2CCOCC2)COC(c2ccc(OCCCO)cc2)=N1	0.0993
COc1ccc([Si](C)(C)[C@@H]2[C@@H](CC(=O)N3Cc4ccccc4C[C@H]3CO)O[C@]3(C(=O)N(Cc4ccc(N5C(=O)c6cccc7cccc5c67)cc4)c4ccccc43)[C@H]2C)cc1	0.453
COC(=O)C1=CC(CCCO)=CC(c2cccs2)N(Cc2cccc(OC(F)(F)F)c2)C=C1C(=O)OC (stereo unspecified)	0.237

// below: composite z-score requested for another compound
Challenge: # get_value(readout='composite z-score', item= CC[C@@H]1C=C(C(=O)O)[C@H](c2ccc(C#N)cc2)N1S(=O)(=O)c1ccc(C)cc1 )
Response given: 0.413

###

Experiment: resazurin metabolic signal in HepG2 cells – cell-based, resazurin fluorescence, 24 h, PK04 Diversity Set, profiling panel (AID 1172); also: test concentration not given here
Conditions: HepG2 viability, higher = more signal
What z-score was measured for each of the following?
One number for each entry.

Take a look at these entries with their results.
compound	z-score
COC(=O)[C@]1(CCS(=O)(=O)c2ccccc2)N=C(c2ccc(OCCCO)cc2)O[C@@H]1c1ccccc1N=[N+]=[N-]	-1.28
Cc1ccc(S[C@]2(C(=O)O)CC(=O)N(C3CCCCC3)[C@@H]2c2ccc(CO)cc2I)cc1	0.465
CCCCC(O)C1C=CC2C(=O)N(C)C(=O)C2N1N(c1ccccc1)c1ccccc1 (stereo not given)	-0.682

Provide z-score for all items below, preserving their order.
1. C#Cc1cc2ccccc2oc1=O
2. Cc1ccc(S[C@]2(C(=O)NC(C)C)CC(=O)N(Cc3cc(C(F)(F)F)cc(C(F)(F)F)c3)[C@@H]2c2ccc(CO)cc2)cc1
3. COc1cccc(C)c1NC(=O)O[C@H]1[C@H](OC(=O)Nc2ccc3c(c2)OCO3)[C@@H](OC(=O)Nc2ccc3c(c2)OCO3)[C@@H](OC)O[C@@H]1CO

Response given:
1: 0.236; 2: -0.489; 3: -0.808

Provide z-score for all items below, preserving their order.
1. CC[C@@H]1C=C(C(=O)O)[C@H](c2ccccc2)N1S(=O)(=O)c1ccc(C)cc1
2. CCCCN1CC=CC23O[C@@H]4/C=C\CCCOC(=O)C4[C@H]2C(=O)N(CCO)[C@@H]3C1=O (stereo not given in full)

Response given:
1. -0.791
2. -1.03

Provide z-score for all items below, preserving their order.
1. CCCC[C@@H](O)C1=C(COC)C[C@H]2C(=O)N(Cc3ccccc3)C(=O)[C@H]2[C@H]1CO
2. COCC(=C=CC[C@H](O)c1ccc(CO)o1)CCO
3. OCCCC1=CC(c2ccc(CN3CCCC3)cc2)N(Cc2cc3c(cc2Br)OCO3)CC1 (stereo not given)
4. CC#CCO[Si](C#Cc1ccccc1)(C(C)C)C(C)C
5. CCCCCC1=C2CNC(C)(C(=O)OC)C=C2C(C)C1=O (stereo not given)
6. COCCOC(=O)N1C(=O)[C@@]2(c3cc(C#CC4(O)CCCCCC4)ccc31)[C@H](C(=O)Nc1nc3ccccc3s1)[C@H]1C(=O)O[C@H](c3ccccc3)[C@H](c3ccccc3)N1[C@@H]2c1ccc(O)cc1

Response given:
1. 0.111
2. -0.116
3. 0.195
4. -0.112
5. -0.901
6. -0.0328

Challenge: # get_value(readout='z-score', item= COc1ccc(CCNC(=O)[C@@]2(Cc3ccccc3I)c3ccccc3C(=O)N(C3CCCCC3)[C@H]2c2ccc(CO)cc2)cc1 )
Response given: -0.0428

###

System: Noggin (protein binding on small-molecule microarray)
Experiment: small molecules binding Noggin protein – biochemical, 635/667 nm fluorescence, primary screen (AID 1095);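 also: score merges 667 nm feature fluorescence with signal to noise over triplicate slides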
Conditions: 635 nm fluorescence, higher = more signal
# cutoff 0.4 applies to composite z-score; >= gives 1.0, < gives 0.0

Record excerpt, results attached:
compound	tgt	group.label
CCCCN1CC=CC23O[C@@H]4/C=C\CCC(C)OC(=O)C4[C@H]2C(=O)N(CCCO)[C@@H]3C1=O (stereo partly specified)	Noggin (protein binding on small-molecule microarray)	0.0
C=C(C(=O)CC[C@H](OC(=O)c1ccccc1-c1ccccc1C(=O)O)c1cccc(OCCO)c1)C(C)C	Noggin (protein binding on small-molecule microarray)	1.0
Cc1ccc(F)cc1S(=O)(=O)N[C@@H]1CCN(Cc2ccc(Br)cc2)C1	Noggin (protein binding on small-molecule microarray)	1.0

Moving on to the next compound.
Challenge: Quick check: does CCOC(=O)C1=CC[C@@H](c2ccccc2)N(S(=O)(=O)c2ccc(C)cc2)[C@H]1c1ccccc1 have composite z-score greater than or equal to 0.4?
Response given: 0.0

###

What z-score was measured for each of the following?
Assay: FRG1 expression reporter modulators in myotubes – cell-based, C2C12 myotubes, firefly/Renilla luciferase, luminescence, FRG1 inhibition for FSHD, primary screen (AID 1084)
Conditions: FRG1 promoter luciferase, higher = more signal, called active from +8 up or from −8 down
Answers are plain numbers.

compound	z-score
CN(C)CCCCCCNC(=O)[C@@H]1C[C@@H]2C(=O)N3CCC[C@H]3C(=O)N2[C@@H]1c1cccc(OCCO)c1	3.21

Provide z-score for all items below, preserving their order.
1. CC(C)N1C(=O)C[C@@](C(=O)NC2CC2)(c2ccc([N+](=O)[O-])cc2)[C@H]1c1ccc(CO)cc1
2. C=CC[C@@H](OC(=O)Nc1ccc(OC)cc1)c1ccc(O)c(F)c1

Response given:
1. 0.74
2. 6.36

Provide z-score for all items below, preserving their order.
1. CC[C@@H]1C=C(C(=O)O)[C@H](c2ccc(C#N)cc2)N1S(=O)(=O)c1ccc(C)cc1
2. COC(=O)C1=CC(CCCO)=CC(c2ccc(CN3CCCC3)cc2)N(Cc2cccc(OC(F)(F)F)c2)C=C1C(=O)OC (stereo not drawn)
3. C=CCNC(=O)[C@@H]1[C@H]2C(=O)O[C@H](c3ccccc3)[C@H](c3ccccc3)N2[C@H](c2ccccc2OCCO)[C@@]12C(=O)N(C(=O)OCCOC)c1ccc(C#CC3(O)CCCCCC3)cc12
4. CCCC=C(CCC)[C@@H](NC(=O)c1cccs1)c1ccc(C(=O)OC)cc1
5. NCCCCCNC(=O)[C@@H]1C[C@@H]2C(=O)N[C@@H](CCCCN)C(=O)N2[C@@H]1c1ccc(O)cc1
6. CC(C)N1C(=O)c2ccccc2[C@@H](C(=O)NCCN2CCOCC2)[C@@H]1c1ccc(CO)cc1
7. COc1cc(NN2C(C(O)c3ccc(N(C)C)cc3)C=CC3C(=O)N(c4ccccc4)C(=O)C32)cc(OC)c1OC (stereo not drawn)

Response given:
[0.281, -0.616, -0.257, 0.874, 1.08, -0.571, 1.44]

Provide z-score for all items below, preserving their order.
1. CCCNC(=O)[C@@]1(C)c2ccccc2C(=O)N(c2ccc(C)cn2)[C@H]1c1ccc(CO)cc1
2. Cn1cccc1C(O)C1C=CC2C(=O)N(c3ccccc3)C(=O)C2N1Nc1ccccc1 (stereo not drawn)

Response given:
0.683
0.687
